Hello, the source for this data is patent US20050232917, in case you need it.

- Experimental system: MAdCAM-IgG1 Fc fusion (human)
- Sequence (chain, as listed by the source): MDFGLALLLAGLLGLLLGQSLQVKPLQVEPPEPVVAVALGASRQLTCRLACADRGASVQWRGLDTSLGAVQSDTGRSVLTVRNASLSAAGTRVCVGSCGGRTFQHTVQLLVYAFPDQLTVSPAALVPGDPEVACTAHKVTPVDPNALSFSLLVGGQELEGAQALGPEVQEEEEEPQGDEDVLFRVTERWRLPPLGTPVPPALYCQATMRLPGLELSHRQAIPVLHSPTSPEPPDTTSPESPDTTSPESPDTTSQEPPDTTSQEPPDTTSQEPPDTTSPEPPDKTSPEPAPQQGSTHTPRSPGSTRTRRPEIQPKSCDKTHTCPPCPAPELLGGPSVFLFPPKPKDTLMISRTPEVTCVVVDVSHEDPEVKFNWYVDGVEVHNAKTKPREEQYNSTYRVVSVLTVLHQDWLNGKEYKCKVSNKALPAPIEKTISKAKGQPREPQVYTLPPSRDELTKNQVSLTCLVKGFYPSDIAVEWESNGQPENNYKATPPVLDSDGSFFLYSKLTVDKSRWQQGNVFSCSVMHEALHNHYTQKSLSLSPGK
- Protocol notes: SPR, protocol 2
pKd: −log10 of the molar value.
Parameter: pKd

Data request: Dear colleague, I am looking for the recorded pKd of the following binder: 6.14.2 (antibody, V domains shown) VH: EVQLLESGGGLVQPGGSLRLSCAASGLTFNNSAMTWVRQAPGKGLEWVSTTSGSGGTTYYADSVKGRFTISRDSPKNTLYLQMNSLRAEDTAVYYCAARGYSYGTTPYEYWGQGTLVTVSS VL: MDMRVPAQLLGLLLLWLRGARCDIQMTQSPSSLSASVGDRVTITCRASRSISSYLNWYQQKPGKAPKVLIFFVSSLQSGVPSRFSGSGSGTDFTLTISSLQPEDFATYYCQQNYIPPITFGQGTRLEIRR
Data returned: > 11.00
